Reported pKd values for the following compounds.
- measured_on: XIAP-BIR3 (Homo sapiens, UniProt P98170)
- Sequence (P98170 241-356 limits assumed): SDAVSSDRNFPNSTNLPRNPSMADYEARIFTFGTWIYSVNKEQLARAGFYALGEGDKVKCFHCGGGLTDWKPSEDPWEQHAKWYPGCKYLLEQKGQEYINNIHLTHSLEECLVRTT
- protocol: XIAP BIR3 fluorescence polarization binding assay (competition with AbuRPF-K(5-Fam)-NH2)
- run_conditions: 5 nM AbuRPF-K(5-Fam)-NH2, 40 nM XIAP-BIR3, pH 7.5; Kd calculated from measured IC50; read-out: KD Range
pKd: −log10 of the molar value.

Consider the following illustrative entries.
{"columns": ["compound", "pKd"],
 "data": [
  ["CNC(C)C(=O)NC(C(=O)N1CCCC1Cc1coc2ccc(Cl)cc12)C(C)C (centres unmarked)", "> 7.00"],
  ["CCC(N)C(=O)NC(C(=O)N1CCCC1Cc1coc2ccccc12)C(C)C (centres unmarked)", "6.00 to 7.00"],
  ["CC(N)C(=O)NC(C(=O)N1CCCC1Cc1coc2ccc(Cl)cc12)C(C)C (centres unmarked)", "> 7.00"],
  ["CC(=O)n1cc(C[C@@H]2CCCN2C(=O)[C@@H](NC(=O)[C@H](C)N)C(C)C)c2ccccc21", "> 7.00"],
  ["C#CCOC(C)[C@H](NC(=O)[C@H](C)N)C(=O)N1C[C@@H](Oc2ccccc2)C[C@H]1COc1ccccc1 (some centres unmarked)", "> 7.00"]
]}

XIAP-BIR3 (Homo sapiens, UniProt P98170) / pKd / CC(C)C(NC(=O)CN)C(=O)N1CC(Oc2ccccc2)CC1Cc1coc2ccccc12 (centres unmarked) : value?
5.00 to 6.00

XIAP-BIR3 (Homo sapiens, UniProt P98170) / pKd / Cc1cccc(C)c1OCCCC1CCCN1C(=O)C(NC(=O)C(C)N)C(C)C (centres unmarked) : value?
< 5.00

XIAP-BIR3 (Homo sapiens, UniProt P98170) / pKd / CNC(C)C(=O)NC(C(=O)N1CCCC1Cc1cn(CCOCCOCCOC)c2ccccc12)C1CCCCC1 (centres unmarked) : value?
6.00 to 7.00

----------
- measured_on: XIAP-BIR3 (Homo sapiens)
- protocol: XIAP BIR3 fluorescence polarization binding assay (competition with AbuRPF-K(5-Fam)-NH2)
- run_conditions: 5 nM AbuRPF-K(5-Fam)-NH2, 40 nM XIAP-BIR3, pH 7.5; Kd calculated from measured IC50; read-out: KD Range
pKd: −log10 of the molar value.
Reported pKd values for the following molecules.

For the molecule CC(N)C(=O)NC(C(=O)N1CCCC1Cc1c(-c2ccccc2)[nH]c2ccccc12)C(C)C (stereo not drawn) [Entry 9-88] , what pKd is on record?
5.00 to 6.00

For the molecule CC(N)C(=O)NC(C(=O)N1CCCC1Cc1c(-c2cnccn2)oc2ccccc12)C(C)C (stereo not drawn) [Entry 9-86] , what pKd is on record?
> 7.00

For the molecule CCC(NC(=O)C(C)N)C(=O)N1CCCC1Cc1coc2ccccc12 (stereo not drawn) [Entry 5-59] , what pKd is on record?
6.00 to 7.00

For the molecule CC(C)[C@H](NC(=O)[C@H](C)N)C(=O)N1C[C@@H](Oc2ccccc2)C[C@H]1/C=C/COc1cccc(Br)c1 [Entry 3-14] , what pKd is on record?
6.00 to 7.00

For the molecule CC(=O)n1cc(CC2CCCN2C(=O)C(NC(=O)CN)C(C)C)c2ccccc21 (stereo not drawn) [Entry 14-95] , what pKd is on record?
< 5.00

# credit: patent US9840464B2
